- Tested on: DU-145
- experiment_description: NCI tumour cell line growth inhibition, 48 h
Activity calls are given as the source filed them. Cut-off read from the data, not from the text of the source: active = GI50 up to about 1.1 µM and inactive = higher.
Task for the reader: assign each of the following molecules its reported GI50.

`N#C/C(=C\c1cn(Cc2ccccc2)c2ccccc12)c1nn(-c2ccccc2)c(N)c1C#N` yielded GI50 of 11.1 µM (inactive)

`COc1ccc(S(=O)(=O)c2nnc(S(=O)(=O)Cc3ccccc3)s2)cc1` yielded GI50 of 17 µM (inactive)

C=C1C(=O)O[C@@H]2O[C@@]3(C)CC[C@H]4[C@H](C)CC[C@@H]1[C@@]24O3 [DEOXYARTEMISITENE] yielded GI50 of 12.9 µM (inactive)

CC1CCC(C(C)C)C(OC(=O)NCn2cc(-c3ccccc3)nn2)C1 (stereo not given) yielded GI50 of > 100 µM (inactive)

`O=C1c2ccccc2-c2nc(-c3cccs3)cc3c2c1nc1ccccc13` yielded GI50 of 14.1 µM (inactive)

Attribution: ChEMBL document CHEMBL1201862
